measurement-protocol: melting temperature; fluorescence melt of hairpins on a sequencing array, two-state fit, raised by 9.35 °C to match UV melts
stated-conditions: sodium 0.088 M
# Tm annotations
result-type: Tm (°C)

>  <sequence-entry>
GTCAGAGAAATCTGAC ((((((....))))))

>  <observed-value>
51.2

$$$$
>  <sequence-entry>
GTGCGAGGAAACTCGTAC ((.((((....)))).))

>  <observed-value>
53.4

$$$$
>  <sequence-entry>
GGGGGTGGAAACGCCTCC ((.((.(....).)).))

>  <observed-value>
49.7

$$$$
>  <sequence-entry>
GGGACGACGAAAGTCCCC (((..(((....))))))

>  <observed-value>
49.2

$$$$
>  <sequence-entry>
GCATGGCGAAAGCAGTGC (((..((....))..)))

>  <observed-value>
56.5

$$$$
>  <sequence-entry>
TGTTCGAAAGAACA (((((....)))))

>  <observed-value>
52.3

$$$$
>  <sequence-entry>
GATCATGACCATGATC ((((((....))))))

>  <observed-value>
55.2

$$$$
>  <sequence-entry>
GATCCGTTTTCGGATC ((((((....))))))

>  <observed-value>
61.8

$$$$
>  <sequence-entry>
GGATTCGAAAGAACTCC ((((((....))).)))

>  <observed-value>
36

$$$$
>  <sequence-entry>
GCATTTTCGAAAGAATGC (((..(((....))))))

>  <observed-value>
35.5

$$$$
>  <sequence-entry>
GATCATGGTCATGATC ((((((....))))))

>  <observed-value>
51.8

$$$$
>  <sequence-entry>
GATCCGTGGCGGATC ((((((...))))))

>  <observed-value>
56.3

$$$$
